Assign EC50 to each entry below.
Test system: Jurkat (clone E6-1) cells with NFAT luciferase reporter
Test: Jurkat reporter assay (NFAT Luciferase)
Assay type: cell-based
Conditions: Homo sapiens; Jurkat NFAT luciferase reporter cells, anti-CD3 stimulation, 6 hr; read-out: Jurkat NFAT EC50

Value of measured EC50 for the entry "Cn1cnnc1-c1ccccc1-c1cccc(-c2nc3cc(CN[C@@H]4CCC[C@@H]4O)cc(C(F)(F)F)c3o2)c1" : 200 to 1000 nM

Value of measured EC50 for the entry "CCNc1cc(-c2ccc(F)cc2-c2nncn2C)cc(-c2nc3cc(CO)cc(C(F)(F)F)c3o2)n1" : 10000 to 50000 nM

Value of measured EC50 for the entry "Cn1cnnc1-c1cc(F)ccc1-c1ccnc(-c2nc3cc(CN[C@@H]4CCC[C@@H]4O)cc(C(F)(F)F)c3o2)c1" : < 200 nM

Value of measured EC50 for the entry "Cn1cnnc1-c1cc(F)ccc1-c1cccc(-c2nc3cc(CNCC4CCCC4)cc(C(F)(F)F)c3o2)c1" : < 200 nM

Value of measured EC50 for the entry "CC(C)NCc1cc(C(F)(F)F)c2oc(-c3cccc(-c4ccc(F)cc4-c4nncn4C)c3)nc2c1" : 200 to 1000 nM

Value of measured EC50 for the entry "Cn1cnnc1-c1cc(F)ccc1-c1cc(-c2nc3cc(CO)cc(C(F)(F)F)c3[nH]2)nc(C2CC2)c1" : 200 to 1000 nM

Value of measured EC50 for the entry "Cn1cnnc1-c1cc(F)ccc1-c1cc(-c2nc3cc(CN[C@@H]4CCC[C@@H]4O)cc(C(F)(F)F)c3[nH]2)nc(C2CC2)c1" : < 200 nM

Value of measured EC50 for the entry Cn1cnnc1-c1cc(F)ccc1-c1cccc(-c2nc3cc([C@@H](CO)N4CCC4)cc(C(F)(F)F)c3o2)c1 (single isomer, unassigned) : 1000 to 10000 nM

Value of measured EC50 for the entry "Cn1cnnc1-c1cc(F)ccc1-c1cccc(-c2nc3cc(CNCC4(C#N)CCCC4)cc(C(F)(F)F)c3o2)c1" : 200 to 1000 nM

Value of measured EC50 for the entry Cn1cnnc1-c1cc(F)ccc1-c1cccc(-c2nc3cc(CNC[C@H](O)C4CC4)cc(C(F)(F)F)c3o2)c1 (single isomer, unassigned) : < 200 nM

Value of measured EC50 for the entry Cn1cnnc1-c1cc(F)ccc1-c1cccc(-c2nc3cc(C(NCC4CCC4)C(F)(F)F)cc(C4CC4)c3o2)c1 (racemic) : 1000 to 10000 nM

Value of measured EC50 for the entry "Cn1cnnc1-c1cc(F)ccc1-c1cc(-c2nc3cc(CNCC4(O)CCC4)cc(C(F)(F)F)c3o2)nc(C2CC2)c1" : < 200 nM

Value of measured EC50 for the entry COCCNC(COC)c1cc(C)c2oc(-c3cccc(-c4ccc(F)cc4-c4nncn4C)c3)nc2c1 (centres unmarked) : 1000 to 10000 nM

Value of measured EC50 for the entry C[C@@H]1CCC[C@@H](NCc2cc(C(F)(F)F)c3oc(-c4cccc(-c5ccc(F)cc5-c5nncn5C)c4)nc3c2)C1 (racemic) : 200 to 1000 nM
